Listing of entries alongside the reported Bronchodilator Action, Duration (min) Mean.
# Tested on: guinea pig bronchioles constricted by carbachol
# PROTOCOL_TEXT: Bronchodilator Test Method II: in vitro, perfused guinea pig lung, bronchioles constricted by carbachol
# TEST_CONDITIONS: Doryl conc. 1:5 million, dose mcg(base) given
Where a name gives a salt, the structure may show the parent alone.
Express the result in min but write the number alone.

>  <MOLECULE>
CC(C)(C)NCC(O)c1ccc(OC(=O)C2CCCCC2)c(OC(=O)C2CCCCC2)c1.Cl (stereo not shown)

>  <UNIT_SYMBOL>
min

>  <TEST_VALUE>
53

$$$$
>  <MOLECULE>
CC(C)(C)NCC(O)c1ccc(OC(=O)C2(C)CC2)c(OC(=O)C2(C)CC2)c1.Cl (stereo not shown)

>  <UNIT_SYMBOL>
min

>  <TEST_VALUE>
15

$$$$
>  <MOLECULE>
CC(C)C(=O)Oc1ccc(C(O)CNC(C)(C)C)cc1OC(=O)C(C)C.Cl (stereo not shown)

>  <UNIT_SYMBOL>
min

>  <TEST_VALUE>
9

$$$$
>  <MOLECULE>
CCC(C)C(=O)Oc1ccc(C(O)CNC(C)(C)C)cc1OC(=O)C(C)CC.Cl (stereo not shown)

>  <UNIT_SYMBOL>
min

>  <TEST_VALUE>
20

$$$$
>  <MOLECULE>
COc1ccc(C(=O)Oc2ccc(C(O)CNC(C)(C)C)cc2OC(=O)c2ccc(OC)cc2)cc1.Cl (stereo not shown)

>  <UNIT_SYMBOL>
min

>  <TEST_VALUE>
32

$$$$

Query string: Notebook: pull reported Bronchodilator Action, Duration (min) Mean for guinea pig bronchioles constricted by carbachol, entry CC(C)(C)NCC(O)c1ccc(OC(=O)C(C)(C)C)c(OC(=O)C(C)(C)C)c1.Cl (stereo not shown)
Result string: 18

Query string: Field: Bronchodilator Action, Duration (min) Mean (guinea pig bronchioles constricted by carbachol). Entry: CC(C)(C)NCC(O)c1ccc(O)c(O)c1 (stereo not shown) [Ref. Cpd. I, reference compound]
Result string: 5

Query string: Missing value: Bronchodilator Action, Duration (min) Mean, guinea pig bronchioles constricted by carbachol, entry CCCC(=O)Oc1ccc(C(O)CNC(C)(C)C)cc1OC(=O)CCC.Cl (stereo not shown) . Fill in?
Result string: 9

Query string: Query Bronchodilator Action, Duration (min) Mean on guinea pig bronchioles constricted by carbachol for CC(C)(C)NCC(O)c1ccc(OC(=O)c2ccccc2)c(OC(=O)c2ccccc2)c1.Cl (stereo not shown)
Result string: 34

Query string: Look up Bronchodilator Action, Duration (min) Mean with guinea pig bronchioles constricted by carbachol for this molecule: CC(C)(C)CC(=O)Oc1ccc(C(O)CNC(C)(C)C)cc1OC(=O)CC(C)(C)C.Cl (stereo not shown)
Result string: 85

Query string: Query for guinea pig bronchioles constricted by carbachol: what Bronchodilator Action, Duration (min) Mean does the record show for CC(C)NCC(O)c1ccc(O)c(O)c1 (stereo not shown) [Ref. Cpd. II, reference compound] ?
Result string: 5

Query string: Item CCC(NC(C)(C)C)C(O)c1ccc(OC(=O)c2ccc(C)cc2)c(OC(=O)c2ccc(C)cc2)c1 (stereo not shown) [Example 144, hydrochloride] with guinea pig bronchioles constricted by carbachol - Bronchodilator Action, Duration (min) Mean?
Result string: 83

Query string: Give the reported Bronchodilator Action, Duration (min) Mean for CCC(C)CC(=O)Oc1ccc(C(O)CNC(C)(C)C)cc1OC(=O)CC(C)CC.Cl (stereo not shown) (system: guinea pig bronchioles constricted by carbachol).
Result string: 43

Query string: Look up Bronchodilator Action, Duration (min) Mean with guinea pig bronchioles constricted by carbachol for this molecule: CC(C)CC(=O)Oc1ccc(C(O)CNC(C)(C)C)cc1OC(=O)CC(C)C.Cl (stereo not shown)
Result string: 18

Query string: Bronchodilator Action, Duration (min) Mean of CCC(NC1CCCC1)C(O)c1ccc(OC(=O)CC(C)C)c(OC(=O)CC(C)C)c1.Cl (stereo not shown) on guinea pig bronchioles constricted by carbachol?
Result string: 25.4

Query string: Form field - read-out: Bronchodilator Action, Duration (min) Mean; system: guinea pig bronchioles constricted by carbachol; submitted item: CC(C)CC(=O)Oc1cc(C(O)CNC(C)(C)C)ccc1OC(=O)C(C)(C)C.Cl (stereo not shown)
Result string: 26

Data provenance: patent US4336400A
